system: XF 498 CNS; assay: NCI tumour cell line growth inhibition, 48 h
# maps each entry to its TGI

| structureSmiles | TGI |
| --- | --- |
| CN(O)C(=O)c1ccccc1 | > 100 µM |
| Cc1ncc(CCl)c2c1OC(C)(C)OC2 | > 100 µM |

Could you now consider this next compound?
Enquiry: Look up TGI with XF 498 CNS for this compound: COc1ccc2c(c1)O[C@@H]1c3ccc(OC)cc3OC[C@H]21
Return: > 100 µM

###

test system: MDA-MB-435; assay: NCI tumour cell line growth inhibition, 48 h
measuredEndpoint: TGI

// below: answered compounds
| compound | TGI |
| --- | --- |
| Cc1ccc(C[N+](C)(C)N)cc1C | > 10 µM |
| Cc1ccc(S(=O)(=O)NC(CCC(=O)NN)C(=O)NN)cc1 (centres undefined) | > 100 µM |
| COc1cc(/C=N/NC(=O)c2ccc(NC(C)=O)cc2OC)ccc1O | > 100 µM |
| N#CCCC1(CCC#N)CCc2ccccc2C1=O | > 100 µM |
| CC(C)=CCC[C@@H](C)C1=C(O)C(c2c(I)c(=O)n(C)c(=O)n2C)=C(C)C(=O)C1=O | > 100 µM |
| COC(=O)CNC(=O)c1cc(C)cc2c1Oc1c(cc(C)cc1C(=O)NCC(=O)OC)S2 | > 100 µM |
| Cc1ccc(C(=O)Nc2ccc(S(=O)(=O)O)c3cc(S(=O)(=O)O)cc(S(=O)(=O)O)c23)cc1NC(=O)Nc1cc(C(=O)Nc2ccc(S(=O)(=O)O)c3cc(S(=O)(=O)O)cc(S(=O)(=O)O)c23)ccc1C | > 87.5 µM |
| CCCCCC(/C=N/Nc1ccccc1)C(O)(C(F)(F)F)C(F)(F)F (centres undefined) | > 100 µM |

Could you now consider this next compound?
Enquiry: Any idea what its TGI is? The compound is CC(=O)OCC1OC(OC2=C(CC=C(C)C)C(=O)c3ccccc3C2=O)C(OC(C)=O)C(OC(C)=O)C1OC(C)=O (centres undefined)
Return: 9.09 µM
